tested on: Saccharomyces cerevisiae; assay: protein stability index of tFT-peptide fusion (C-terminal peptide) (PSI (0-1 scale)); higher = more stable (slower turnover); details: genetic background: wild type; temperature: 30 C
For each record, write down the corresponding protein stability index.
Give bare numbers.

Take each entry in turn and give its protein stability index.
1. NCAPVPLSPADS
2. RHSAQRPRARHP
3. IVFLPVLLWFSV
4. PRPPPHPPPSPL
5. WVVGCVRGVWGA

Output:
1: 0.685; 2: 0.79; 3: 0.407; 4: 0.509; 5: 0.712

Take each entry in turn and give its protein stability index.
1. PIFQGTCPSTFV
2. KKKKEKKETKKK
3. SHHKAFFDLVFM

Output:
0.675
0.67
0.758

Take each entry in turn and give its protein stability index.
1. RWLGWRAGGAAG
2. STLTPLPLRASA
3. IKKNKQNKIKRN
4. DPPSVPSPLPTS
5. SGPSIPCFLYSS

Output:
[0.662, 0.533, 0.699, 0.689, 0.698]

----------
For each record, write down the corresponding protein stability index.
system: Saccharomyces cerevisiae; experiment: protein stability index of tFT-peptide fusion (C-terminal peptide) (PSI (0-1 scale)); higher = more stable (slower turnover); details: genetic background: wild type; temperature: 30 C
Answers are plain numbers.

> print(dat)
   sequence.record            quantity.name  test.value
1     VVSVVVLVNSRG  protein stability index       0.441
2     LGVGGLRSRGAG  protein stability index        0.74

Take each entry in turn and give its protein stability index.
1. FGSCVVVRRVGF
2. VVIGCRRVLGCV
3. TLSPPPALASPL
4. LLSLVYSPLSPL
5. STLPTHQLPPHS
6. RGSRLVPRLLRP
7. VWIGMSLSSLVM
8. VCFLFGLVGFGS

Output:
1. 0.619
2. 0.583
3. 0.71
4. 0.664
5. 0.624
6. 0.71
7. 0.512
8. 0.597

----------
test system: Saccharomyces cerevisiae; assay: protein stability index of tFT-peptide fusion (C-terminal peptide) (PSI (0-1 scale)); higher = more stable (slower turnover); conditions: genetic background: wild type; temperature: 30 C;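 note: PSI is a weighted mean of sequencing reads over stability bins, variants kept only with over 10 reads, mCherry proximal and sfGFP distal, peptide attached via GGGS linker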
For each record, write down the corresponding protein stability index.
Give bare numbers.

These recorded examples may help you get a feel for the data.
> print(dat)
   sequence.record  test.value
1     PYPPRPATPRPP       0.682
2     LSDIDLLGLPIL        0.66
3     RPPRPAATGVQH       0.683
4     APDRPTPSLSSP       0.706
5     GWLASPHFPYAY       0.688

Take each entry in turn and give its protein stability index.
1. PPPSRPLLPFPP
2. PLHPSRPPPSSP
3. HSSFCIVIRVSR
4. LSSSWDLTHFDC
5. CPLPGSRHLAPV
6. PSPPHLHLHLAP
7. LPLPPLRSSRPL
8. DSKRIQSRLYYS

Output:
[0.706, 0.708, 0.513, 0.714, 0.742, 0.665, 0.665, 0.66]

Take each entry in turn and give its protein stability index.
1. CVAACSGHAAVG
2. SPSTPPPPSPPV
3. KGNDQVLRLFIR
4. GRSIGVGGGGRG
5. RRRENAKENEIK

Output:
1. 0.692
2. 0.647
3. 0.73
4. 0.719
5. 0.812

According to the records, this sequence IMGGPGLTALSR displays protein stability index of 0.729
